# system.under.test: human MDM2 protein (amino acids 2-188) (Homo sapiens (Human))
# Sequence (Q00987 2-188): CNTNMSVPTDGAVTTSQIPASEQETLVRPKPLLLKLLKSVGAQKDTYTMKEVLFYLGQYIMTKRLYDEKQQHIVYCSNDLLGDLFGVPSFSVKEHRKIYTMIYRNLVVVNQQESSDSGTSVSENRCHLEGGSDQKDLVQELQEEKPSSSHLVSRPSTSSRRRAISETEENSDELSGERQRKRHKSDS
# method.summary: TR-FRET assay, p53-MDM2 Assay 2 (modified)
# Type: binding
# measurement.setup: TR-FRET; 0.1 nM MDM2, 0.1 nM Europium labeled streptavidin, Tecan genios Pro reader; read-out: IC50 p53-MDM2 Assay 2
readout.kind: IC50 (pM)

Example cases with answers are listed next.
> print(dat)
                                   compound  readout.kind  assay.value
1  COc1nc(N(C)C)ncc1-c1cc2c(n1C(C)C)C(c1ccc(Cl)cc1)N(c1cc(Cl)cn(C)c1=O)C2=O (stereo not drawn)          IC50          161
2  COc1ccc(CC(=O)O)cc1-c1cc2c(n1C(C)C)C(c1ccc(Cl)cc1)N(c1cc(Cl)ccc1C)C2=O (stereo not drawn)          IC50          155
3  COc1nc(N(C)C)ncc1-c1cc2c(n1C(C)C)C(c1ccc(C#N)cc1)N(c1ccc(F)c(Cl)c1)C2=O (stereo not drawn)          IC50          361
4  CNc1ncc(-c2cc3c(n2C(C)C)[C@@H](c2ccc(C#N)cc2)N(c2cc(Cl)cn(C)c2=O)C3=O)c(OC)n1          IC50       293000
5  COc1ncc(-c2cc3c(n2C(C)C)C(c2ccc(Cl)cc2)N([C@H]2CC[C@H](O)CC2)C3=O)c(OC)n1 (stereo partly drawn)          IC50         1380

P = COc1nc(N)ncc1-c1cc2c(n1C(C)C)[C@H](c1ccc(C#N)cc1)N(c1ccc(F)c(Cl)c1)C2=O
Q = COc1cn(C)c(=O)cc1-c1cc2c(n1C(C)C)C(c1ccc(Cl)cc1)N(c1cc(Cl)cnc1OC)C2=O (stereo not drawn)
Of P and Q , whose reported IC50 is the larger number? Indicate your choice by writing its label.
P
(P: 699 pM, Q: 198 pM)

A = COc1ncc(-c2cc3c(n2C(C)C)[C@@H](c2ccc(C#N)cc2)N(c2cc(Cl)c(=O)n(C)c2)C3=O)c(OC)n1
B = COc1ncc(-c2cc3c(n2C(C)C)C(c2ccc(Cl)cc2C)N(C2CCOCC2)C3=O)c(OC)n1 (stereo not drawn)
Among A and B , which shows a numerically higher IC50 result? Mark your answer with the label of the selected entry.
A
(A: 144000 pM, B: 14300 pM)

###

# system.under.test: human MDM2 protein (amino acids 2-188) (Homo sapiens (Human))
# method.summary: TR-FRET assay, p53-MDM2 Assay 2 (modified)
# Type: binding
# measurement.setup: TR-FRET; 0.1 nM MDM2, 0.1 nM Europium labeled streptavidin, Tecan genios Pro reader; read-out: IC50 p53-MDM2 Assay 2
pIC50: −log10 of the molar value.
readout.kind: pIC50

Guide cases for pIC50, answers given:
> print(dat)
                                   molecule  readout.kind  assay.value
1  CNC(=O)c1ccc(OC)c(-c2cc3c(n2C(C)C)[C@@H](c2ccc(Cl)cc2C)N(c2cc(Cl)ccc2C)C3=O)c1 [Example 33]         pIC50         7.35
2  COc1nc(N(C)C)ncc1-c1cc2c(n1C(C)C)C(c1ccc(Cl)cc1)N(c1cc(Cl)c(=O)n(C)c1)C2=O (stereo not drawn) [Example 52]         pIC50         9.86
3  COc1ncc(-c2cc3c(n2C(C)C)[C@H](c2ccc(Cl)cc2)N(c2cc(Cl)c(=O)n(C)c2)C3=O)c(OC)n1 [Example 121]         pIC50        10.06
4  COc1nc(N)ncc1-c1cc2c(n1C(C)C)C(c1ccc(Cl)cc1)N([C@H]1CC[C@H](OC)CC1)C2=O (stereo partly drawn) [Example 141]         pIC50         8.16

P = COc1ncc(-c2cc3c(n2C(C)C)C(c2ccc(C#N)cc2)N(c2cc(Cl)cn(C)c2=O)C3=O)c(OC)n1 (stereo not drawn) [Example 132]
Q = COc1nc(N(C)C)ncc1-c1cc2c(n1C(C)C)C(c1ccc(C#N)cc1)N(c1c(F)c(C)nn1C)C2=O (stereo not drawn) [Example 231]
When the recorded pIC50 values are compared, which is smaller: that of P or that of Q ? Label of pick, please.
P
(P: 8.94, Q: 9.65)
